biological target: CFTR (Homo sapiens, UniProt P13569); construct: results in the phosphorylation and opening of CFTR anion channels; assay: T84 assay (FLIPR membrane potential dye, forskolin/IBMX-stimulated CFTR channel activity); conditions: human colonic T84 cells, average of at least 2 runs unless otherwise indicated
Sequence (P13569 whole entry): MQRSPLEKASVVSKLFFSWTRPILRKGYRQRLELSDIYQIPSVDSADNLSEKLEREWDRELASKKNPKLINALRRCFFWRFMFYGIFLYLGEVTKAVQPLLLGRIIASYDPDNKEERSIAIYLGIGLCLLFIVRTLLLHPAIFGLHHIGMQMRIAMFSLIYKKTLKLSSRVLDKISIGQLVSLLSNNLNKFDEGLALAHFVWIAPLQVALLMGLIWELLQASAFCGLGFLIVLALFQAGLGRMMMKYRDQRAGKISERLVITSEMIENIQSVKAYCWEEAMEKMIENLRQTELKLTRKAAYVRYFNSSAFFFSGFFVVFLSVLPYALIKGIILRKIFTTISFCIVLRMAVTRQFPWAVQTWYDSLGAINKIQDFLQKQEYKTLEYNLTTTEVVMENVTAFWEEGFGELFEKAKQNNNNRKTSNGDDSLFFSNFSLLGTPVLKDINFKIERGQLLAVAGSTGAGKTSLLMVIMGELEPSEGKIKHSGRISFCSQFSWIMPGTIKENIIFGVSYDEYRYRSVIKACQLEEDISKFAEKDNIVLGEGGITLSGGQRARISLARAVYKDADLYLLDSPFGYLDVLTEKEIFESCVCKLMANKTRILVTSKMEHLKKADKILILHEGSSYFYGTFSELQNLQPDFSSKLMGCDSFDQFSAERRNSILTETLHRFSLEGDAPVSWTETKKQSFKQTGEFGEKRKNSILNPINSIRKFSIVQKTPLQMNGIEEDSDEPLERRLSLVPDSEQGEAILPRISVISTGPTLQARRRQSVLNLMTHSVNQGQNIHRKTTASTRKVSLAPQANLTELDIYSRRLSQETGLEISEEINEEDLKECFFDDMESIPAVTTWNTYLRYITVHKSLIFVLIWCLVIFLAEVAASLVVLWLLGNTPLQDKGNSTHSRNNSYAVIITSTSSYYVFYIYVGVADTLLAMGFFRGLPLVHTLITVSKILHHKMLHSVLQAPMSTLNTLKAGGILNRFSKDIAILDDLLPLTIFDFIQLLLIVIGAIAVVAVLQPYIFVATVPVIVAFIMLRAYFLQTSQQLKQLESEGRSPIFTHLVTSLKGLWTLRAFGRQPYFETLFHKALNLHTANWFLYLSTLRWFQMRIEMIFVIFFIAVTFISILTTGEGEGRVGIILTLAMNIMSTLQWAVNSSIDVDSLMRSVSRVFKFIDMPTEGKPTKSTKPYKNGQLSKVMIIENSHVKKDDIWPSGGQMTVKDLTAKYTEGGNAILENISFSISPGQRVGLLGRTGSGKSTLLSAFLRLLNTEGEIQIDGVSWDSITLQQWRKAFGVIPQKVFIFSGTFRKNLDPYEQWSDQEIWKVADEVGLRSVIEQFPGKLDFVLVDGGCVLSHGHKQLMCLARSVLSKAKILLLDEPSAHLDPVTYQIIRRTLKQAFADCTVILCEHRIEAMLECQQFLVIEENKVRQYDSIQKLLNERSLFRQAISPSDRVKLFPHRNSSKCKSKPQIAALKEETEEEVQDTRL
MEASURE NAME: IC50 (µM)

Use the examples below as a reference point.
[[record]]
molecule = "Cc1cccc(COc2c(-c3csc(C(=O)N4CCC(Cc5ccccc5)CC4)n3)cc(Br)c(O)c2Br)n1 [Compound 88]"
measurement_target = "CFTR (Homo sapiens, UniProt P13569)"
quantitative_result = 15.5

[[record]]
molecule = "CCOC(=O)CCCOc1c(-c2csc(C(=O)N3CCC(Cc4ccccc4)CC3)n2)cc(Br)c(O)c1Br [Compound 83]"
measurement_target = "CFTR (Homo sapiens, UniProt P13569)"
quantitative_result = 4.2

[[record]]
molecule = "O=C(NCc1ccc(Oc2ccccc2)cc1)c1nc(-c2cc(Br)c(O)c(Br)c2)cs1 [Compound 75]"
measurement_target = "CFTR (Homo sapiens, UniProt P13569)"
quantitative_result = 23.9

[[record]]
molecule = "O=C(NCc1cccc(OC(F)(F)F)c1)c1csc(-c2cc(Cl)c(O)c(Cl)c2)n1 [Compound 80]"
measurement_target = "CFTR (Homo sapiens, UniProt P13569)"
quantitative_result = 15

[[record]]
molecule = "O=C(NCC(c1ccccc1)c1ccccc1)c1nc(-c2cc(Br)c(O)c(Br)c2O)cs1 [Compound 81]"
measurement_target = "CFTR (Homo sapiens, UniProt P13569)"
quantitative_result = 4.22


(P) COCCOCCOc1c(-c2csc(C(=O)N3CCC(Cc4ccccc4)CC3)n2)cc(Br)c(O)c1Br [Compound 87]
(Q) O=C(c1nc(-c2cc(Cl)c(O)c(Cl)c2)cs1)N1CCN(c2cccc(C(F)(F)F)c2)CC1 [Compound 74]
(R) O=C(c1nc(-c2cc(Br)c(O)c(Br)c2O)cs1)N1CCC(Cc2ccccc2)CC1 [Compound 68]
Please list the entries, largest IC50 first. // rank by listing labels in the order requested
Q, R, P
(Q: 20 µM, R: 4.78 µM, P: 1.73 µM)

(I) O=C(NCc1ccc(Oc2ccccc2)cc1)c1nc(-c2cc(Br)c(O)c(Br)c2O)cs1 [Compound 79]
(II) O=C(NC(c1ccccc1)c1ccccc1)c1nc(-c2cc(Cl)c(O)c(Cl)c2)cs1 [Compound 69]
(III) O=C(NCc1cccc(OC(F)(F)F)c1)c1nc(-c2cc(Br)c(O)c(Br)c2O)cs1 [Compound 78]
Reorder the items by IC50, least to greatest. Give the labels in the order specified.
III, II, I
(III: 2.56 µM, II: 6.51 µM, I: 11.5 µM)

(P) O=C(c1nc(-c2cc(Br)c(O)c(Br)c2O)cs1)N1CCN(c2cccc(C(F)(F)F)c2)CC1 [Compound 82]
(Q) O=C(c1nc(-c2cc(Br)c(O)c(Br)c2OCCN2CCOCC2)cs1)N1CCC(Cc2ccccc2)CC1 [Compound 86]
# query: argmin of IC50 over P and Q // caller expects the label of the chosen entry
Q

(P) O=C(NC(c1ccccc1)c1ccccc1)c1nc(-c2cc(Br)c(O)c(Br)c2)cs1 [Compound 71]
(Q) O=C(NCc1ccc(Oc2ccccc2)cc1)c1nc(-c2cc(Cl)c(O)c(Cl)c2)cs1 [Compound 76]
(R) CN(Cc1cccc(C(F)(F)F)c1)C(=O)c1nc(-c2cc(Cl)c(O)c(Cl)c2)cs1 [Compound 67]
Put the molecules in ascending order of IC50. Present the labels in the sequence the task asks for.
R, P, Q
(R: 4.04 µM, P: 9.24 µM, Q: 29.5 µM)
